# System: 883617-216-R-J1-PDC complex spheroid viability;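 further: exposure lasted seven days after three days of spheroid growth; 100% = DMSO vehicle control luminescence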
# experimental.protocol: Anticancer human tumor 883617-216-R-J1-PDC patient-derived bladder carcinoma cell line growth inhibition
# condition: second compound 3.16 µM; first compound 0.316 µM; hits give low values
# Description: Multicellular complex tumor spheroid response to LSD1 Inhibitor Iadademstat in combination with a variety of drugs and investigational agents in selected tumor cell lines The current study was undertaken to assess response to LSD1 inhibitors in combination with standard-of-care drugs and investigational agents in solid tumor complex spheroid models as well as in the K-562 leukemia. […] Compounds. […] If the clinical Cmax for an agent had not been determined, the highest concentration tested was 10 microM. […]
readout.kind: viability, T/C (%)

INSERT INTO assay_data (molecule, target_desc, unit_annotation, readout_value) VALUES
  ('O=C(c1cc(Cc2n[nH]c(=O)c3ccccc23)ccc1F)N1CCN(C(=O)C2CC2)CC1 + NC1CC1c1ccc(-c2cccc(O)c2)cc1', '883617-216-R-J1-PDC complex spheroid viability', '%', 53.7),
  ('CC1(C)CCC(CN2CCN(c3ccc(C(=O)NS(=O)(=O)c4ccc(NCC5CCOCC5)c([N+](=O)[O-])c4)c(Oc4cnc5[nH]ccc5c4)c3)CC2)=C(c2ccc(Cl)cc2)C1 + NC1CC1c1ccc(-c2cccc(O)c2)cc1', '883617-216-R-J1-PDC complex spheroid viability', '%', 106),
  ('CC1COCCN1c1cc(-c2ccnn2C)c2ccnc(-c3ccn[nH]3)c2n1 (stereo not drawn) + NC1CCC(NC2CC2c2ccccc2)CC1', '883617-216-R-J1-PDC complex spheroid viability', '%', 36.1),
  ('CC1COCCN1c1cc(C2(S(C)(=N)=O)CC2)nc(-c2ccnc3[nH]ccc23)n1 (stereo not drawn) + NC1CC1c1ccc(-c2cccc(O)c2)cc1', '883617-216-R-J1-PDC complex spheroid viability', '%', 46.1),
  ('COc1ccc([C@@H](O)c2cc(-c3ncnc4cc(N5CCOCC5)ccc34)c(F)cc2Cl)nn1 + NC1CC1c1ccc(-c2cccc(O)c2)cc1', '883617-216-R-J1-PDC complex spheroid viability', '%', 58.2),
  ('COc1ccc([C@@H](O)c2cc(-c3ncnc4cc(N5CCOCC5)ccc34)c(F)cc2Cl)nn1 + NC1CCC(NC2CC2c2ccccc2)CC1', '883617-216-R-J1-PDC complex spheroid viability', '%', 73.7),
  ('COc1cc(Nc2ncc3c(n2)-c2ccc(Cl)cc2C(c2c(F)cccc2OC)=NC3)ccc1C(=O)O + NC1CC1c1ccc(-c2cccc(O)c2)cc1', '883617-216-R-J1-PDC complex spheroid viability', '%', 36.6),
  ('O=C(C=Cn1cnc(-c2cc(C(F)(F)F)cc(C(F)(F)F)c2)n1)NNc1cnccn1 + NC1CCC(NC2CC2c2ccccc2)CC1', '883617-216-R-J1-PDC complex spheroid viability', '%', 29.6),
  ('CC1COCCN1c1cc(-c2ccnn2C)c2ccnc(-c3ccn[nH]3)c2n1 (stereo not drawn) + NC1CC1c1ccc(-c2cccc(O)c2)cc1', '883617-216-R-J1-PDC complex spheroid viability', '%', 23.2),
  ('Nc1ncn(C2CC(O)C(CO)O2)c(=O)n1 (stereo not drawn) + NC1CC1c1ccc(-c2cccc(O)c2)cc1', '883617-216-R-J1-PDC complex spheroid viability', '%', 60.5),
  ('CC1(C)CCC(CN2CCN(c3ccc(C(=O)NS(=O)(=O)c4ccc(NCC5CCOCC5)c([N+](=O)[O-])c4)c(Oc4cnc5[nH]ccc5c4)c3)CC2)=C(c2ccc(Cl)cc2)C1 + NC1CCC(NC2CC2c2ccccc2)CC1', '883617-216-R-J1-PDC complex spheroid viability', '%', 110),
  ('Nc1ncn(C2CC(O)C(CO)O2)c(=O)n1 (stereo not drawn) + NC1CCC(NC2CC2c2ccccc2)CC1', '883617-216-R-J1-PDC complex spheroid viability', '%', 78.6),
  ('O=C(c1cc(Cc2n[nH]c(=O)c3ccccc23)ccc1F)N1CCN(C(=O)C2CC2)CC1 + NC1CCC(NC2CC2c2ccccc2)CC1', '883617-216-R-J1-PDC complex spheroid viability', '%', 88.6),
  ('COc1cc(Nc2ncc3c(n2)-c2ccc(Cl)cc2C(c2c(F)cccc2OC)=NC3)ccc1C(=O)O + NC1CCC(NC2CC2c2ccccc2)CC1', '883617-216-R-J1-PDC complex spheroid viability', '%', 55.5),
  ('O=C(C=Cn1cnc(-c2cc(C(F)(F)F)cc(C(F)(F)F)c2)n1)NNc1cnccn1 + NC1CC1c1ccc(-c2cccc(O)c2)cc1', '883617-216-R-J1-PDC complex spheroid viability', '%', 14.6),
  ('CC(C)c1c(-c2ccccc2)nc2c(C#N)c[nH]n2c1=O + NC1CCC(NC2CC2c2ccccc2)CC1', '883617-216-R-J1-PDC complex spheroid viability', '%', 97.8),
  ('CC(C)c1c(-c2ccccc2)nc2c(C#N)c[nH]n2c1=O + NC1CC1c1ccc(-c2cccc(O)c2)cc1', '883617-216-R-J1-PDC complex spheroid viability', '%', 105),
  ('CC1COCCN1c1cc(C2(S(C)(=N)=O)CC2)nc(-c2ccnc3[nH]ccc23)n1 (stereo not drawn) + NC1CCC(NC2CC2c2ccccc2)CC1', '883617-216-R-J1-PDC complex spheroid viability', '%', 75.4);
